target-desc: Runt-related transcription factor 1 (Homo sapiens) + Core-binding factor subunit beta (Homo sapiens) (UniProt Q01196+Q13951)
Sequence (Q01196 whole entry, looked up, the tested form may be a part): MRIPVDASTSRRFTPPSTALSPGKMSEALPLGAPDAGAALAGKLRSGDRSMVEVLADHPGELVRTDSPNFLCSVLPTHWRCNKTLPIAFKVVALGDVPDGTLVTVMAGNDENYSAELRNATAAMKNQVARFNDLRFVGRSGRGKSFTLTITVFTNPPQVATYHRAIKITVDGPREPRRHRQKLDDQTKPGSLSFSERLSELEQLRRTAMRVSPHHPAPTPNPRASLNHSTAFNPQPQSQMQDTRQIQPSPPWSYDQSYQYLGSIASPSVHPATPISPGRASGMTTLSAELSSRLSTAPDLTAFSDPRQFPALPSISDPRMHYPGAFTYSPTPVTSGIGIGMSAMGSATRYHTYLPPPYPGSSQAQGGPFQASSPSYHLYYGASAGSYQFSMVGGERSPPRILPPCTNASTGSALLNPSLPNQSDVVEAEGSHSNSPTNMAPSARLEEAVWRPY
Sequence (Q13951 whole entry, looked up, the tested form may be a part): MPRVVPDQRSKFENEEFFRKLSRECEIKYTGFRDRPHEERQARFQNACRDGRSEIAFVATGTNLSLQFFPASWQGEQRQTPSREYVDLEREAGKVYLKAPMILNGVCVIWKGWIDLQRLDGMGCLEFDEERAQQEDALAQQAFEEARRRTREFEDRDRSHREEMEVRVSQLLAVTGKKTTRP
method-notes: Runt domain/CBFb-SMMHC interaction disruptors – biochemical, TR-FRET (AID 1438)
condition-description: at 20 µM, active compounds read high
Hit rate of the full screen: of about 2,200 compounds, about 45 (2%) were called active. Only a sample is shown. Entries with a potency or affinity are not part of this list.
Use 20% as the dividing line for inhibition, with the line itself on the MET side and lower values as NOT MET.

• CCCn1c(=N)c(C(=O)NC2CCCC2)cc2c(=O)n3cccc(C)c3nc21 = NOT MET
• CSc1nc(NCCCO)c2c3c(sc2n1)CN(C)CC3 = NOT MET
• COc1ccc(C2c3ccc(O)cc3Oc3ncn(CC(C)C)c(=N)c32)cc1 (stereo unspecified) = NOT MET
• CNS(=O)(=O)c1ccc2nc(NC(=O)c3ccc(N4C(=O)CCC4=O)cc3)sc2c1 = NOT MET
• Cc1cc(=O)oc2c(CN3CC(C)OC(C)C3)c(O)c(Cl)cc12 (stereo unspecified) = NOT MET
• Cc1ccc(C2C3=C(CC(C)(C)CC3=O)N(CCN3CCOCC3)C3=C2C(=O)CC(C)(C)C3)cc1 = MET
• C=CCOc1ccc(C2C(C#N)=C(N)N(Nc3ccccc3)C3=C2C(=O)CCC3)cc1OC (stereo unspecified) = MET
• CCCN1C2=C(C(=O)CCC2)C(c2ccc(O)c(Br)c2)C2=C1CCCC2=O = MET
• CCOc1ccc2nc(NCCNC(=O)CC)c(C#N)cc2c1 = MET
• CCOC(=O)C1=C(CSc2nc3c(cc2C#N)CN(C)CC3)OC(N)=C(C#N)C1c1ccncc1 (stereo unspecified) = MET
• CC(C)OC(=O)c1c2nc3ccccc3nc2n2c1[nH]c(=O)c1ccccc12 = NOT MET
• Cn1c(C(=O)NCc2ccccn2)cc2c(=O)n3ccccc3nc21 = NOT MET
• COc1cccc(C(=O)Nc2nc3c(s2)CN(C)CC3)c1 = NOT MET
• CCOC(=O)c1c(NC(=O)C(F)(OC)C(F)(F)F)sc2c1CCN(C)C2 (stereo unspecified) = NOT MET
• CCC(C)n1c(=N)c(C#N)cc2c(=O)n3cccc(C)c3nc21 (stereo unspecified) = NOT MET
• CCC(C)(C)n1nnnc1C(c1cc2cc3c(cc2[nH]c1=O)OCO3)N1CCN(C)CC1 (stereo unspecified) = MET
• O=C(c1ccccc1)c1cnc(Nc2ccc(Cl)c(Cl)c2)s1 = MET
• COc1ccc(C2C3=C(CC(C)(C)CC3=O)Nc3c2c(=O)[nH]c2nc(C)nn32)cc1 (stereo unspecified) = NOT MET
• CCOC(=O)c1cc2c(=O)n3ccccc3nc2n(CCCOC)c1=NC(=O)c1cccnc1 = MET
• CCOC(=O)c1cc2c(=O)n3ccccc3nc2n(CC2CCCO2)c1=NC(=O)/C=C/c1ccccc1 (stereo unspecified) = NOT MET
• N#Cc1c(N)n(CCc2ccc(F)cc2)c2nc3ccccc3nc12 = MET

====

# inhibition per entry
target-desc: Runt-related transcription factor 1 (Homo sapiens) + Core-binding factor subunit beta (Homo sapiens) (UniProt Q01196+Q13951)
method-notes: Runt domain/CBFb-SMMHC interaction disruptors – biochemical, TR-FRET (AID 1438)
condition-description: at 20 µM, active compounds read high
In all, about 2,200 compounds went through this assay and about 45 (2%) were called active. The list is a sample of the results. Potency and affinity values are given separately.
measurement-type: inhibition (%)

• CCCNC(=O)Cn1sc2nc(C)cc(C)c2c1=O = -3.9
• CCOC(=O)CCc1c(C)c(C#N)c2nc3ccccc3n2c1-n1ccnc1 = -4
• O=C(c1ccccc1)c1cc2ccc(O)cc2oc1=O = -8.4
• CC(=O)N=c1c(C#N)cc2c(=O)n3ccccc3nc2n1CCCOC(C)C = 7.1
• COc1ccccc1NC(=O)c1cc2ccccc2o/c1=N\O = 30.6
• C=CCNC(=O)/C(C#N)=C/c1c(N(Cc2ccccc2)Cc2ccccc2)nc2ccccn2c1=O = 19.2
• Cc1cc(-c2nc3cccnc3s2)ccc1NS(=O)(=O)c1cccs1 = -9.2

====

Reported inhibition values follow for various molecules
target-desc: Runt-related transcription factor 1 (Homo sapiens) + Core-binding factor subunit beta (Homo sapiens) (UniProt Q01196+Q13951)
method-notes: Runt domain/CBFb-SMMHC interaction disruptors – biochemical, TR-FRET (AID 1438)
condition-description: at 20 µM, active compounds read high
Hit rate of the full screen: of about 2,200 compounds, about 45 (2%) were called active. Not all results are given here. Results with a measured potency or affinity are listed apart.
measurement-type: inhibition (%)

- NS(=O)(=O)c1ccc(NC(=O)COC(=O)c2c3c(nc4ccccc24)/C(=C\c2ccc4c(c2)OCO4)CCC3)cc1: -24.4
- CC(=O)N=c1c(C#N)cc2c(=O)n3cccc(C)c3nc2n1CCCOC(C)C: -10.3
- Cn1c(=O)nc2n(Cc3ccccc3)c3ccccc3cc-2c1=O: 36.1
- Cc1cccn2c(=O)c3cc(C(N)=S)c(=N)n(CCCN4CCOCC4)c3nc12: -11.3
- O=C(O)c1cc2ccc3ccccc3c2oc1=O: 34.5
- O=C(c1ccccc1)c1ccccc1N1C(=O)C=CC1=O: 28.3
- O=c1c2ccccc2sn1-c1nccs1: -7
- COc1ccc(Br)cc1C1NC(=O)c2c(sc3c2CCN(C)C3)N1 (configuration not stated): 15
- COc1cc(/C=N/N2CCN(C3c4ccccc4-c4ccccc43)CC2)cc(OC)c1O: 33.8
- c1ccn2c(c1)nc1c2nc2ccccn21: 8.5
- COCCn1c(=N)c(C(=O)NCCc2ccc(OC)cc2)cc2c(=O)n3cccc(C)c3nc21: 23.3
- CCOC(=O)c1cc2c(ccc3ccccc32)oc1=O: -0.5
- O=C(O)c1c2c(nc3ccccc13)/C(=C/c1ccc(O)cc1)CC2: -6.6
- CCCCCCc1cc2cc(S(=O)(=O)c3ccc(Cl)cc3)c(=O)oc2cc1O: 12.2
- CCN1C=C(C(=O)OC)C(c2cccc(OC)c2OC)C(C(=O)OC)=C1: -23.2
- CC(C)N1CCc2c(sc(NC(=S)NC(=O)c3ccccc3)c2C#N)C1: 21.2
- CCc1nnc(NS(=O)(=O)c2ccc(N/C=C/C(=O)c3ccc(OC)cc3)cc2)s1: -1.7
- CC(C)OCCCn1c(=N)c(C(N)=S)cc2c(=O)n3ccccc3nc21: 49.7
- O=c1oc2ccc3ccccc3c2cc1-c1nnc(-c2cccs2)o1: 29.8
- Cc1cccn2c(=O)c3cc(C(N)=S)c(=N)n(CCCOC(C)C)c3nc12: 63.5
- O=C1C=CC(=O)N1c1cccc(-c2ccccc2)c1: -6.3
- COc1ccc(/C=C2\CCc3c2nc2ccccc2c3C(=O)O)cc1OC: -11.1

====

target-desc: Runt-related transcription factor 1 (Homo sapiens) + Core-binding factor subunit beta (Homo sapiens) (UniProt Q01196+Q13951)
method-notes: Runt domain/CBFb-SMMHC interaction disruptors – biochemical, TR-FRET (AID 1438)
condition-description: at 20 µM, active compounds read high
The whole screen tested about 2,200 compounds, of which about 45 (2%) were called active. Not all results are given here. Results with a measured potency or affinity are listed apart.
The reader will find reported inhibition values listed item by item below.
measurement-type: inhibition (%)

* Cc1ccc(CNC(=O)c2cc3c(=O)n4ccccc4nc3n(CC3CCCO3)c2=N)cc1 (centres undefined) | 36.3
* CN(C)CCNc1c2c(c(C#N)c3nc4ccccc4n13)CCCC2 | 21.3
* COc1cc(/C=C/C(=O)OCC(=O)Nc2ccccc2Sc2ccc(Cl)cc2)ccc1O | 1.1
* O=C(Nc1nccs1)c1ccccc1N=Cc1ccccc1 | 49.3
* Cc1c(O)ccc2c3c(c(=O)oc12)CCC(C)C3 (centres undefined) | 19.7
* CC1CCc2c(sc(Nc3nc4c(F)cccc4s3)c2C(N)=O)C1 (centres undefined) | 48.6
* COc1ccc(-n2c(N)c(C(=O)NCc3ccco3)c3nc4ccccc4nc32)cc1 | 42.9
* COC(=O)C1=CN(CC2CCCO2)C=C(C(=O)OC)C1c1ccccc1C(F)(F)F (centres undefined) | 45.6
* N#Cc1c(N)[nH]c(=S)c(C#N)c1-c1ccccc1 | -64.2

====

target-desc: Runt-related transcription factor 1 (Homo sapiens) + Core-binding factor subunit beta (Homo sapiens) (UniProt Q01196+Q13951)
method-notes: Runt domain/CBFb-SMMHC interaction disruptors – biochemical, TR-FRET (AID 1438)
condition-description: at 20 µM, active compounds read high
In all, about 2,200 compounds went through this assay and about 45 (2%) were called active. These entries were drawn from the full list. Potency and affinity values are given separately.
inhibition values by entry
measurement-type: inhibition (%)

• C=CCNc1sc(C(=O)c2cccs2)c(N)c1C#N = -0.1
• CC(=O)N(C)/C=C1\Sc2ccccc2C1=O = 6.4
• Cc1ccc(C2C3=C(CC(C)(C)CC3=O)Nc3[nH]c(=S)[nH]c(=O)c32)cc1 (stereo not given) = 39.6
• CCOC(=O)C1=C(CSc2nc3c(cc2C#N)CN(C)CC3)OC(N)=C(C#N)C1c1ccc(F)cc1 (stereo not given) = 22.5
• CNc1sc(C(=O)c2cccs2)c(N)c1-c1nc2ccccc2s1 = 35.8
